Target: human full-length recombinant HPK1 (Homo sapiens (Human), UniProt Q92918)
Sequence (Q92918 whole entry): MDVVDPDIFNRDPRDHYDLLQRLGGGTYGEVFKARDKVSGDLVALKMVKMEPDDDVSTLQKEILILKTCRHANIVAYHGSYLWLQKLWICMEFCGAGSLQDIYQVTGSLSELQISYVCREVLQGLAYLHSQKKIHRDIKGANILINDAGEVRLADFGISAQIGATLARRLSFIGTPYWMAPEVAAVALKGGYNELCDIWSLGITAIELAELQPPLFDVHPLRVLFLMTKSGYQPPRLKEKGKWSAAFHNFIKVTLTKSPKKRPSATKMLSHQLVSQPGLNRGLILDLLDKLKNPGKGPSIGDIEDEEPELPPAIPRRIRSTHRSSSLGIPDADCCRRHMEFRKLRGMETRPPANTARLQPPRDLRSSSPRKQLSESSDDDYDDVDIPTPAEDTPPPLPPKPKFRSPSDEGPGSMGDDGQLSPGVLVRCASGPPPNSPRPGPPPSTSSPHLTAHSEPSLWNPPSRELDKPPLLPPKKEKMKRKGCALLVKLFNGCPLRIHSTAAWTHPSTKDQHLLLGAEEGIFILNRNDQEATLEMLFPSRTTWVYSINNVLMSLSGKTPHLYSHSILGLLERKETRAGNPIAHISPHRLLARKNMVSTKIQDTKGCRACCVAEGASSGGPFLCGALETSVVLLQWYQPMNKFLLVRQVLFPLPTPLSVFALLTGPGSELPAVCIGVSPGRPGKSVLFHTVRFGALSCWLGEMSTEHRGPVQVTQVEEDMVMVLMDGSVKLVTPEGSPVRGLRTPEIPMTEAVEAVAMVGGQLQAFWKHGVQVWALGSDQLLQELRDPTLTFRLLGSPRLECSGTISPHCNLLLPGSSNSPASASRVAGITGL
Assay: HPK1 biochemical enzyme assay, microfluidic mobility shift assay (MSA)
Details: HPK1 mobility shift assay; read-out: HPK1 Enzyme Assay_Ki
In this section, each of the compounds is paired with its reported Ki.
observable: Ki (nM)

CCCn1c(C)nnc1-c1cccc(N2Cc3c(cc(N(C)C(C)C)nc3CN)C2=O)n1 [Example 172] = 0.55
CCn1cnnc1-c1cccc(N2Cc3c(cc(C4CCC4)nc3CNC)C2=O)n1 [Example 101] = 0.94
CNCc1nc(N2CCC[C@H]2C)cc2c1CN(c1cccc(-c3nncn3C(C)C)n1)C2=O [Example 104] = 0.13
CCn1c(C)nnc1-c1cccc(N2Cc3c(cc(N4CCCC4(C)C)nc3CN)C2=O)n1 [Example 154] = 0.15
CCN(c1cc2c(c(CNC)n1)CN(c1cccc(N3C(=O)OC[C@@H]3CF)n1)C2=O)C(C)C [Example 98] = 0.96
CCC(CC)n1cnnc1-c1cccc(N2Cc3c(cc(N(C)C(C)C)nc3CN)C2=O)n1 [Example 150] = 0.06
Cc1nnc(-c2cccc(N3Cc4c(cc(N5[C@H](C)CC[C@H]5C)nc4CN)C3=O)n2)n1C(C)C [Example 169] = 0.95
CCN(c1cc2c(c(CNC)n1)CN(c1cccc(-c3nncn3CC)n1)C2=O)C(C)C [Example 84] = 0.14
CCN(c1cc2c(c(CN)n1)CN(c1cccc(-c3nncn3C(C)C)n1)C2=O)C(C)C [Example 145] = 0.47
CNCc1nc(N(C)C(C)C)cc2c1CN(c1cccc(N3C(=O)OC[C@@H]3C)n1)C2=O [Example 74] = 0.06
CCn1c(C)nnc1-c1cccc(N2Cc3c(cc(N4[C@H](C)CC[C@H]4C)nc3CN)C2=O)n1 [Example 168] = 0.76
CCNc1cc2c(c(CNC)n1)CN(c1cccc(-c3nncn3C(C)C)n1)C2=O [Example 77] = 0.68
CCCn1cnnc1-c1cccc(N2Cc3c(cc(C4CCC4)nc3CNC)C2=O)n1 [Example 103] = 1.15
CCN(C)c1cc2c(c(CNC)n1)CN(c1cccc(-c3nncn3CC)n1)C2=O [Example 131] = 0.11
CCN(CC)c1cc2c(c(CN)n1)CN(c1cccc(-c3nnc(C)n3CC)n1)C2=O [Example 163] = 0.88
CCN(c1cc2c(c(CNC)n1)CN(c1cccc(-c3nncn3C)n1)C2=O)C(C)C [Example 108] = 3.7
CCN(C)c1cc2c(c(CN)n1)CN(c1cccc(-c3nnc(C)n3CC)n1)C2=O [Example 171] = 0.34

Where these numbers come from: patent US11142525B2
